Reference source: ChEMBL document CHEMBL1201862

- System: HL-60
- assay_notes: NCI tumour cell line growth inhibition, 48 h
The source made the active and inactive calls. No stated cut-off is given here; in the data, active = GI50 up to about 1.1 µM and inactive = higher.
Could you please pick one outcome from this set? active, inactive

Below are worked cases with known answers.
Cc1ccc(/C=N/NS(=O)(=O)c2ccccc2)cc1: inactive
O=[N+]([O-])/C(Cl)=C(/C(Cl)=C(Cl)Cl)N1CCCCC1: inactive
CCCCc1ccc(-n2sc3ncc(C)cc3c2=O)cc1: inactive

What did this assay record as the result for `Cc1ccc(S(=O)(=O)NC(=O)Nc2nc[nH]n2)cc1` ?
inactive

###

- Tested on: MOLT-4
- assay_notes: NCI tumour cell line growth inhibition, 48 h
The source made the active and inactive calls. Rule as the data show it: active = GI50 up to about 1.1 µM and inactive = higher.
Please state which outcome applies, choosing from Y for active, N for inactive

Reference set (5 entries):
CCOC(=O)/C(C(=O)c1ccc([N+](=O)[O-])cc1)=C(\NS(=O)(=O)c1cc(C)c(Cl)cc1[S-])[n+]1ccc(N(C)C)cc1: N
CCC(C)N1CN(c2ccccc2)C2(CCN(CCCSc3ccc(F)cc3)CC2)C1=O (stereo not given): N
COc1ccc(/N=N/c2c(-c3ccccc3)nn(C(=O)CC(=O)Nc3cccc(Cl)c3)c2-c2ccccc2)cc1: N
CCNC(=S)NNC(=O)C12CC3CC(CC(C3)C1)C2: N
C[C@]12CC(c3ccccc3O1)C(C#N)C(=O)N2 (stereo not given in full): N

Look up the recorded call for O=C(O)C1C(C(=O)O)C2C(=O)C=CC1N2Cc1ccccc1 (stereo not given) in this test.
N

Look up the recorded call for `COc1ccc(-c2cc(C(=O)Nc3ccc(C)c(C)c3)nc(NC#N)n2)cc1` in this test.
N
